assay: NCI Yeast Anticancer Drug Screen. Data for the cln2 rad14 strain (AID 165);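 further: 0% = growth equal to vehicle treated cultures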; conditions: S. cerevisiae cln2 rad14 strain, at 50.0 µM, stronger effect = higher value
The panel holds about 79,000 compounds, 15% with a hit somewhere; the sample as a whole holds those more often.
Each record here notes measured growth inhibition.
Give the value in % but do not write % after it.

- compound: "CCCCCCCCCCC(=O)OCC"
  growth inhibition [%]: -1.85
- compound: "COC(=O)C(C(=O)C(=O)Nc1ccccc1C(C)=O)c1nc2ccc(Cl)cc2[nH]c1=O (stereo unspecified)"
  growth inhibition [%]: -4.45
- compound: "CC(=O)Nc1cccnc1"
  growth inhibition [%]: -21.1

stdin: # input compound: CCC1(C)C(=O)c2ccccc2N(C)C1=O (stereo unspecified) ; wanted: its growth inhibition
stdout: -37.9

stdin: Fill blank: measured growth inhibition of the compound CN1c2ccccc2C2CC(CC#N)CC(=O)C21 (stereo unspecified) is ____.
stdout: -12.2

stdin: Need growth inhibition of `CC(=O)Cn1c(=O)oc2ccccc2c1=O` , thanks.
stdout: 49.5

stdin: Given the compound CC(=O)NCC1(c2ccccc2)CCN(CC2COc3ccccc3O2)CC1 (stereo unspecified) , what is its reported growth inhibition?
stdout: 16

---

assay: NCI Yeast Anticancer Drug Screen. Data for the sgs1 mgt1 strain (AID 161);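 further: 0% = growth of cultures given vehicle only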; conditions: S. cerevisiae sgs1 mgt1 strain, at 50.0 µM
About 79,000 compounds went through this panel and 15% of them were active in at least one assay; those are over-represented in the sample as a whole. Active and inactive are the calls of the source. Rule as the data show it: active = growth inhibition above about 70%; inactive = the rest.
Field 'call' accepts active, inactive

- compound: "CC(=O)OCCS(=O)Cc1ccccc1 (centres undefined)"
  label-class: "inactive"
- compound: "COc1ccc(CC(C)=C(C#N)C#N)cc1OC"
  label-class: "inactive"
- compound: "COc1ccc(C(=C(I)c2ccccc2)c2ccc(OC)cc2)cc1"
  label-class: "inactive"
- compound: "COC(=O)C(CS)NC(=O)CNC(=O)CNC(=O)C(CCCCNC(=O)OCc1ccccc1)NC(=O)CNC(=O)C(CSC(c1ccccc1)(c1ccccc1)c1ccccc1)NC(=O)OCc1ccccc1 (centres undefined)"
  label-class: "inactive"
- compound: "COc1ccccc1C=NC12CC3CC(CC(C3)C1)C2"
  label-class: "inactive"

stdin: Recorded call for `COC(=O)/C(C#N)=C(\C)CC(C)C` ?
stdout: inactive

stdin: Called result for `CCOCCOC(=O)c1ccc(C(C)C)cc1`
stdout: inactive

stdin: For `CC1(C)CN(CCO)C(C)(C)CN1CCO` , what call appears in the results of this test?
stdout: inactive

---

experiment: NCI Yeast Anticancer Drug Screen. Data for the cln2 rad14 strain (AID 165);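 further: 0% = growth equal to vehicle treated cultures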; conditions: S. cerevisiae cln2 rad14 strain, at 50.0 µM, stronger effect = higher value
The panel holds about 79,000 compounds, 15% with a hit somewhere; the sample as a whole holds those more often.
recorded-metric: growth inhibition (%)
Give the quantity in %, number only.

- molecule: "CCN(CC)CC(C)(C)C=O"
  growth inhibition [%]: 4.3

stdin: growth inhibition lookup needed for `c1cc2c3c(c1)ccc1ccc4cccc(c4c13)O2` , thanks.
stdout: -0.7

stdin: So what does the record say about growth inhibition for `CC(C)(C)Nc1ccc([N+](=O)[O-])cc1[N+](=O)[O-]` ?
stdout: 7.95

---

test: NCI Yeast Anticancer Drug Screen. Data for the rad50 strain (AID 155);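 further: 0% = growth of vehicle-only cultures of the same strain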; details: S. cerevisiae rad50 strain growth inhibition; at 50.0 µM; stronger effect = higher value
The panel holds about 79,000 compounds, 15% with a hit somewhere; the sample as a whole holds those more often.
Here, each record is paired with measured growth inhibition data.
Respond with the bare value in %.

- molecule: "O=C(/C=C/c1ccccc1)CCc1c(O)c2ccccc2oc1=O"
  growth inhibition (%): 9.05
- molecule: "C=C(CC(=O)OCC)C(=O)OCC"
  growth inhibition (%): 15.4
- molecule: "CCOC(=O)c1nc2ccc(C(F)(F)F)cc2nc1NCc1ccc(OC)c(OC)c1"
  growth inhibition (%): 5.7
- molecule: "O=C1/C(=N\\O)C2CCC1C2 (configuration not stated)"
  growth inhibition (%): -11.2
- molecule: "O=[N+]([O-])c1ccc(N=C/C=C/Nc2ccc([N+](=O)[O-])cc2)cc1"
  growth inhibition (%): 5
- molecule: "Cc1ccc(C(=N)c2ccccc2Cc2ccccc2)cc1C"
  growth inhibition (%): -11.7
- molecule: "CC1=C(C(=O)Nc2ccc(C)cc2)C(c2cccc([N+](=O)[O-])c2)C(C(=O)Nc2ccc(C)cc2)=C(C)N1"
  growth inhibition (%): 14.9
- molecule: "NC(=S)NO"
  growth inhibition (%): -1.85
- molecule: "COc1cc2c(cc1OC)C(=O)/C(=C/c1ccc(N(C)C)cc1)CC2"
  growth inhibition (%): -39.5
- molecule: "CCOc1cccc(-c2ccccc2)c1"
  growth inhibition (%): 18.3

stdin: I have this molecule here, `CSC(SC)=C1CCCC(=C(SC)SC)C1=O` , and I need its recorded growth inhibition.
stdout: -6.95

stdin: Endpoint output: growth inhibition of CC(=O)OCCC(OC(C)=O)c1ccccn1 (configuration not stated) . Value?
stdout: -13.9

---

The following compounds are listed with their measured growth inhibition values.
assay: NCI Yeast Anticancer Drug Screen. Data for the rad50 strain (AID 155);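 further: 0% = growth of vehicle-only cultures of the same strain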; conditions: S. cerevisiae rad50 strain growth inhibition; at 50.0 µM; stronger effect = higher value
This is part of a sample that, as a whole, favours compounds with a hit. Of some 79,000 tested, about 15% had one in any assay.
Lab book: enter the figure in %, no units written.

Example results:
- compound: "NNC(=O)C(=O)O"
  unit: "%"
  growth inhibition: 14.4
- compound: "CCC(=O)Cc1ccc(OC)c(OC)c1"
  unit: "%"
  growth inhibition: -0.3
- compound: "CC#CCCCC1(C)CCNC1=S (centres undefined)"
  unit: "%"
  growth inhibition: 13.8
- compound: "COc1cc2c(cc1C1=NC(C)(C)CO1)OCO2"
  unit: "%"
  growth inhibition: -7.35
- compound: "CCN1c2nc3ccccc3nc2N(CC)c2nc3ccccc3nc21"
  unit: "%"
  growth inhibition: -30.1

stdin: Give its growth inhibition value. Item: `COc1ccc2c(=O)cc(-c3ccncc3)oc2c1OC`
stdout: 40.2

stdin: Can you look up the measured growth inhibition of O=C(Nc1ccc(Cl)cc1)OC(C(=O)c1ccccn1)c1ccccn1 (centres undefined) for me?
stdout: 0.25

stdin: Name the recorded growth inhibition for `CCCCCCn1cnc2c(=S)nc[nH]c21` .
stdout: 24.6

stdin: Quick one: growth inhibition for CN(C)S(=O)(=O)C(CO)c1ccccc1 (centres undefined) ?
stdout: 5.75

stdin: Consider the compound `CN=C(C#N)c1ccccc1` and give its measured growth inhibition.
stdout: -10.6

stdin: Query (compound): `CCCC[P+](CCCC)(CCCC)c1ccccc1` ; field requested: growth inhibition
stdout: -12.7

stdin: Dear colleague, I am looking for the recorded growth inhibition of the following compound: `NC(=N\C1=NCCN1)/C(N)=N/C1=NCCN1`
stdout: -13.4

stdin: For the compound `Nc1nc(N)c2nn(-c3ccc(C(=O)O)cc3)nc2n1` , what growth inhibition is on record?
stdout: -13.6

stdin: Reported growth inhibition for `Cc1c2c(n3c(nc4ccccc43)c1C#N)SCC2` : what is it?
stdout: -51.3

---

test: NCI Yeast Anticancer Drug Screen. Data for the mlh1 rad18 strain (AID 175); settings: S. cerevisiae mlh1 rad18 strain growth inhibition; at 50.0 µM; stronger effect = higher value
About 79,000 compounds went through this panel and 15% of them were active in at least one assay; those are over-represented in the sample as a whole.
recorded-metric: growth inhibition (%)
All answers are understood in %, so give the number only.

- compound: "CN(C)C=Nc1cccc2cnccc12"
  recorded-metric: "growth inhibition"
  recorded-value: -16.7
- compound: "CCCCCCCCNC(C(=O)c1ccc(Cl)cc1)c1ccc(Cl)cc1 (configuration not stated)"
  recorded-metric: "growth inhibition"
  recorded-value: 25.8
- compound: "COc1ccc(NC(C)=O)c(O)c1C"
  recorded-metric: "growth inhibition"
  recorded-value: -12.7
- compound: "CC1S/C(=N\\N=C\\c2ccc(Cl)cc2)N=C1c1c(O)c2ccccc2oc1=O (configuration not stated)"
  recorded-metric: "growth inhibition"
  recorded-value: 45.9

stdin: For the compound shown here, C=CCCCCCCCCC(=O)NC(C)C(C)(C)C (configuration not stated) , give the reported growth inhibition.
stdout: 25.5

stdin: I would be grateful if you could share the reported growth inhibition for CC(=O)C1(C(C)=O)OC2c3ccccc3C=CN2C=C1C=O (configuration not stated) .
stdout: 11.1

stdin: Can you look up the measured growth inhibition of `Cc1cc(C)c(N(C)C(=O)CCC(=O)O)c(Br)c1` for me?
stdout: -6.45

---

assay: NCI Yeast Anticancer Drug Screen. Data for the cln2 rad14 strain (AID 165);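 further: 0% = growth equal to vehicle treated cultures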; settings: S. cerevisiae cln2 rad14 strain, at 50.0 µM, stronger effect = higher value
This is part of a sample that, as a whole, favours compounds with a hit. Of some 79,000 tested, about 15% had one in any assay.
recorded-metric: growth inhibition (%)
Just the number in %, nothing appended.

Some molecules with known growth inhibition results, for comparison:
- molecule: "CC(C)C(/C=C/c1ccc(Br)cc1)=N\\NC(N)=O"
  growth inhibition (%): -13.9
- molecule: "COC(=O)C(C(=O)C(=O)Nc1ccc(C)cc1)c1nc2ccc([N+](=O)[O-])cc2[nH]c1=O (stereo unspecified)"
  growth inhibition (%): -3.95
- molecule: "CCC(=O)NC1CCCCC1"
  growth inhibition (%): -15.3
- molecule: "CCOC(=O)/C(C#N)=C/c1ccc(C)o1"
  growth inhibition (%): 33
- molecule: "O=C(c1ccccc1)C1C(/C=C/c2ccccc2)C(C(=O)c2ccccc2)C1/C=C/c1ccccc1 (stereo unspecified)"
  growth inhibition (%): 0.4

Please find the next molecule below.
stdin: Record request: growth inhibition value, item `N#CC(C#N)CN(C1=NCCO1)c1cccc2c1CCCC2`
stdout: -24.6
